# Test system: rat chronic carcinogenicity bioassay, TD50
# assay text: DSSTox (CPDBAS) Carcinogenic Potency Database Summary Rat Bioassay Results
# measurement context: TD50_Rat_Note: TD50 is harmonic mean of more than one positive test; TargetSites_Rat_Female: ear Zymbals gland; subcutaneous tissue; thyroid gland; active compounds read low
measurement type: Potency

Request: Hi! What's the reported Potency for N=C1C=CC(=C(c2ccc(N)cc2)c2ccc(N)cc2)C=C1 on rat chronic carcinogenicity bioassay, TD50?
Response: 39.4 mg/kg/day

----------
# Test system: rat chronic carcinogenicity bioassay, TD50
# assay text: DSSTox (CPDBAS) Carcinogenic Potency Database Summary Rat Bioassay Results
# measurement context: TD50_Rat_Note: TD50 is harmonic mean of more than one positive test; TD50_Rat_mmol was not calculated for this mixture, but Activiity S; TargetSites_Rat_Female: hematopoietic system; liver; active compounds read low
measurement type: Potency

Request: Which Potency value is on record for CC(C)CCCCCCOC(=O)c1ccccc1C(=O)OCCCCCCC(C)C ?
Response: 861 mg/kg/day

----------
# Test system: rat chronic carcinogenicity bioassay, TD50
# assay text: DSSTox (CPDBAS) Carcinogenic Potency Database Summary Rat Bioassay Results
# measurement context: TD50_Rat_Note: TD50 value less than the reported upper confidence limit; TD50 is harmonic mean of more than one positive test; harmonic; TargetSites_Rat_Female: liver; active compounds read low
measurement type: Potency

Request: Hi! What's the reported Potency for Cc1ccc(N=Nc2c(O)c(S(=O)(=O)O)cc3ccc(S(=O)(=O)O)cc23)c(C)c1 on rat chronic carcinogenicity bioassay, TD50?
Response: 415 mg/kg/day

----------
# Tested on: rat chronic carcinogenicity bioassay, TD50
# assay text: DSSTox (CPDBAS) Carcinogenic Potency Database Summary Rat Bioassay Results
# measurement context: TD50_Rat_Note: TD50 is harmonic mean of more than one positive test; TargetSites_Rat_Female: thyroid gland; active compounds read low
# Text: The Carcinogenic Potency Database (CPDB) is a unique and widely used international resource of the results of over 6500 chronic, long-term animal cancer tests on over 1500 chemical substances. The CPDB provides easy access to the bioassay literature, with qualitative and quantitative analyses of both positive and negative experiments that have been published over the past 50 years in the general literature and by the National Cancer Institute/National Toxicology Program. […]
Kindly supply the reported Potency values for the records listed here.

Request: Which Potency value is on record for CN(C)c1ccc(Cc2ccc(N(C)C)cc2)cc1 ?
Response: 16.4 mg/kg/day

Request: Which Potency value is on record for Cc1ncc[nH]1 ?
Response: 868 mg/kg/day

Request: Which Potency value is on record for Cn1cc[nH]c1=S ?
Response: 1.14 mg/kg/day

Request: Which Potency value is on record for CCCc1cc(=O)[nH]c(=S)[nH]1 ?
Response: 13.7 mg/kg/day

Request: Which Potency value is on record for CCNC(=S)NCC ?
Response: 24 mg/kg/day

Request: Which Potency value is on record for O=C/C=C/O ?
Response: 122 mg/kg/day

Request: Which Potency value is on record for O=c1cc[nH]c(=S)[nH]1 ?
Response: 11.9 mg/kg/day

Request: Which Potency value is on record for Nc1ccc(Cc2ccc(N)cc2)cc1 ?
Response: 20 mg/kg/day

----------
# Tested on: rat chronic carcinogenicity bioassay, TD50
# assay text: DSSTox (CPDBAS) Carcinogenic Potency Database Summary Rat Bioassay Results
# measurement context: TD50_Rat_Note: TD50 is harmonic mean of more than one positive test; TargetSites_Rat_Female: no positive results; active compounds read low
measurement type: Potency

Request: Which Potency value is on record for CCC1(CC)C(=O)N=C(O)NC1=O ?
Response: 45.7 mg/kg/day

Request: Which Potency value is on record for CCCC[C@H](C)[C@@H](OC(=O)C[C@H](CC(=O)O)C(=O)O)[C@@H](C[C@H](C)C[C@@H](O)CCCC[C@@H](O)C[C@H](O)[C@H](C)N)OC(=O)C[C@H](CC(=O)O)C(=O)O ?
Response: 1.5 mg/kg/day

Request: Which Potency value is on record for NC(N)=S ?
Response: 98.5 mg/kg/day

----------
# Tested on: rat chronic carcinogenicity bioassay, TD50
# assay text: DSSTox (CPDBAS) Carcinogenic Potency Database Summary Rat Bioassay Results
# measurement context: TargetSites_Rat_Female: nasal cavity; active compounds read low
measurement type: Potency

Request: Hi! What's the reported Potency for CC1CN(N=O)CC(C)N1C (stereo unspecified) on rat chronic carcinogenicity bioassay, TD50?
Response: 0.151 mg/kg/day

----------
# Tested on: rat chronic carcinogenicity bioassay, TD50
# assay text: DSSTox (CPDBAS) Carcinogenic Potency Database Summary Rat Bioassay Results
# measurement context: TD50_Rat_Note: TD50 is harmonic mean of more than one positive test; TargetSites_Rat_Female: clitoral gland; skin; active compounds read low
measurement type: Potency

Request: Which Potency value is on record for COc1ccc([N+](=O)[O-])cc1N ?
Response: 53.9 mg/kg/day

----------
# System: rat chronic carcinogenicity bioassay, TD50
# assay text: DSSTox (CPDBAS) Carcinogenic Potency Database Summary Rat Bioassay Results
# measurement context: TD50_Rat_Note: no positive results; TargetSites_Rat_Female: no positive results
Calls of active or inactive are those of the source.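 The calls were made as follows: active = at least one rat sex group has a carcinogenic potency value and tumor site recorded; inconclusive = only rat studies were judged inadequate by the national testing program; inactive = no potency or tumor site, with negative rat experiments.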
measurement type: outcome

>>> print(df.to_string())
                     entry_smiles    result
0                     O=NN1CSCSC1  inactive
1  N/C(=N\O)c1ccc([N+](=O)[O-])o1  inactive

----------
# Test system: rat chronic carcinogenicity bioassay, TD50
# assay text: DSSTox (CPDBAS) Carcinogenic Potency Database Summary Rat Bioassay Results
# measurement context: TargetSites_Rat_BothSexes: esophagus; active compounds read low
measurement type: Potency

Request: Hi! What's the reported Potency for CCCc1ccc2c(c1)OCO2 on rat chronic carcinogenicity bioassay, TD50?
Response: 143 mg/kg/day

----------
# System: rat chronic carcinogenicity bioassay, TD50
# assay text: DSSTox (CPDBAS) Carcinogenic Potency Database Summary Rat Bioassay Results
# measurement context: TD50_Rat_Note: TD50 is harmonic mean of more than one positive test; TargetSites_Rat_Female: ear Zymbals gland; liver; stomach; vascular system; active compounds read low
measurement type: Potency

Request: Which Potency value is on record for [O-]/[N+](=N\O)c1ccccc1 ?
Response: 8.35 mg/kg/day

----------
Kindly supply the reported Potency values for the records listed here.
# Tested on: rat chronic carcinogenicity bioassay, TD50
# assay text: DSSTox (CPDBAS) Carcinogenic Potency Database Summary Rat Bioassay Results
# measurement context: TargetSites_Rat_Female: hematopoietic system; mammary gland; active compounds read low

Request: Which Potency value is on record for O=C1NCCN1/N=C/c1ccc([N+](=O)[O-])o1 ?
Response: 5.26 mg/kg/day

Request: Which Potency value is on record for NNc1nc(-c2ccc(N)cc2)cs1 ?
Response: 1.03 mg/kg/day

Request: Which Potency value is on record for CCCCNC(=O)N(CCCC)N=O ?
Response: 4.28 mg/kg/day

----------
Kindly supply the reported Potency values for the records listed here.
# Tested on: rat chronic carcinogenicity bioassay, TD50
# assay text: DSSTox (CPDBAS) Carcinogenic Potency Database Summary Rat Bioassay Results
# measurement context: TargetSites_Rat_Female: liver; active compounds read low
# Text: The Carcinogenic Potency Database (CPDB) is a unique and widely used international resource of the results of over 6500 chronic, long-term animal cancer tests on over 1500 chemical substances. The CPDB provides easy access to the bioassay literature, with qualitative and quantitative analyses of both positive and negative experiments that have been published over the past 50 years in the general literature and by the National Cancer Institute/National Toxicology Program. […]

Request: Hi! What's the reported Potency for O=C([O-])c1cc(N=Nc2ccc(-c3ccc(N=Nc4c(O)ccc(N=Nc5cc(S(=O)(=O)[O-])ccc5[O-])c4[O-])cc3)cc2)ccc1O.[Cu+2].[Na+].[Na+] on rat chronic carcinogenicity bioassay, TD50?
Response: 2.07 mg/kg/day

Request: Hi! What's the reported Potency for O=NN(CCO)CC(O)CO (configuration not stated) on rat chronic carcinogenicity bioassay, TD50?
Response: 5.98 mg/kg/day

Request: Hi! What's the reported Potency for C#C[C@]1(O)CC[C@H]2[C@@H]3CCc4cc(O)ccc4[C@H]3CC[C@@]21C on rat chronic carcinogenicity bioassay, TD50?
Response: 0.2 mg/kg/day

Request: Hi! What's the reported Potency for CN(C)c1ccc(N=Nc2ccccc2)cc1 on rat chronic carcinogenicity bioassay, TD50?
Response: 3.31 mg/kg/day

Request: Hi! What's the reported Potency for Clc1cc2c(c(Cl)c1Cl)Oc1c(cc(Cl)c(Cl)c1Cl)O2 on rat chronic carcinogenicity bioassay, TD50?
Response: 0.000596 mg/kg/day

Request: Hi! What's the reported Potency for CC(=O)CN(CCO)N=O on rat chronic carcinogenicity bioassay, TD50?
Response: 1.8 mg/kg/day

Request: Hi! What's the reported Potency for O=C1C2(Cl)C3(Cl)C4(Cl)C(Cl)(Cl)C5(Cl)C3(Cl)C1(Cl)C5(Cl)C24Cl (configuration not stated) on rat chronic carcinogenicity bioassay, TD50?
Response: 2.96 mg/kg/day
